assay: Rat pharmacokinetic study; format: in vivo, SD rat; conditions: SD, plasma, PO 10 mg/kg
measurement name: Cmax (ng/mL)

compound	Cmax [ng/mL]
CCN(c1nc(-c2ccc(F)cc2)c(C#N)s1)c1c2nc(-c3cnc(N4CC[C@@H](O)C4)nc3)ccc2nn1CC [Example 28]	1720

[1] CCN(c1nc(-c2ccc(F)cc2)c(C#N)s1)c1c2nc(-c3cnc(N4CCC(O)CC4)nc3)ccc2nn1CC [Example 26]
[2] CCN(c1nc(-c2ccc(F)cc2)c(C#N)s1)c1c2nc(-c3cnc(N4CCCS4(=O)=O)nc3)ccc2nn1CC [Example 17]
INPUT: When their Cmax values are compared, which is larger, 1 or 2 ? Let me know the label of the one you choose.
OUTPUT: 2

[1] CCN(c1nc(-c2ccc(F)cc2)c(C#N)s1)c1c2nc(-c3cnc(N4CCOCC4)nc3)ccc2nn1CC [Example 29]
[2] CCc1nc2c(C)cc(N3CCN(CC(=O)N4CC(O)C4)CC3)cn2c1N(C)c1nc(-c2ccc(F)cc2)c(C#N)s1 [GLPG1690]
INPUT: I'm curious whether 1 or 2 has the smaller Cmax number. Which is it? Returns: label corresponding to the selected item.
OUTPUT: 2
(2: 512 ng/mL, 1: 847 ng/mL)
